Target: Cytochrome P450 3A4 (Homo sapiens)
Test: Cytochrome panel assay with activity outcomes
Settings: recombinant CYP, pro-luciferin dealkylation, luminescence, p450-cyp3a4; series mostly up to 57.1 µM
Hit rate of the full screen: of about 16,000 compounds, about 5,100 (32%) were called active. Inconclusive results (about 25%) are left out. The call rests on the fitted dose curve; in most records, active means well fitted curve in the direction sought with a large enough effect; inconclusive means small, poorly fitted or top-dose-only effect, or effect the other way; inactive means no such curve, though single readings can be large or run the other way. The list shows a part of the results.
Write down the outcome that applies. Available outcomes: Y (active), N (inactive)

Cn1c(CNS(=O)(=O)c2ccc(F)cc2)n[nH]c1=S; N
COc1ccc(NC(=O)N2CC[C@@]3(CCCN(C(=O)c4cc(C(F)(F)F)cc(C(F)(F)F)c4)C3)C2)cc1; Y
CCc1ccc(NC(=O)Cn2nc(C(F)(F)F)c3c2CCC3)cc1; Y
COc1cccc(Cn2c(=O)c(-c3cccs3)nc3cncnc32)c1; Y

Check the results log: what was the call for `C[C@@H](C[N+](C)(C)C)OC(N)=O` ?
N

Continue with `COc1ccc(NC(=O)N2CCCC3(CCN(C(=O)c4cccn4C)CC3)C2)cc1`
Y

Now consider N#C/C(=C\c1cccs1)C(=O)NCC1CCCO1 (stereo unspecified) .
N

Cool, now `COc1cc(CNCCc2ccccc2)ccc1OCC(=O)NC(C)(C)C`
N

Then what about the compound `COc1ccc(NC(=O)N2CC3(CCN(C(=O)c4cccn4C)CC3)C2)cc1` ?
N

Thanks! And `O=C(O)CN1CCN(Cc2ccccc2)C1=O` ?
N
